assay: Rat repeat-dose toxicity studies: plasma toxicokinetics; type: in vivo; details: male, Sprague-Dawley, rat, plasma, po, 30 mg/kg/day, Mean AUC0–24, rat male; 30 mg/kg/day oral; 4 weeks; last day of dosing
measured parameter: AUC(0-t) (ng·h/mL)
A number alone suffices; assume ng·h/mL.

Problem: Can you share its AUC(0-t)? I mean this compound: Cc1cc(Nc2cc3ncccc3c(N[C@@H]3C[C@H]4CC[C@@H](C3)N4CCC#N)n2)n[nH]1 [izencitinib, Izencitinib]
Solution: 23.4

====

assay: Rat repeat-dose toxicity studies: plasma toxicokinetics; format: in vivo; details: male, Sprague-Dawley (Crl:CD), rat, plasma, po, 100 mg/kg/day, Mean Cmax, rat male; 100 mg/kg/day oral; 26 weeks; last day of dosing
measured parameter: Cmax

Problem: Can you share its Cmax? I mean this compound: Cc1cc(Nc2cc3ncccc3c(N[C@@H]3C[C@H]4CC[C@@H](C3)N4CCC#N)n2)n[nH]1
Solution: 15.8 ng/mL

====

experiment: Rat repeat-dose toxicity studies: plasma toxicokinetics; format: in vivo; settings: female, Sprague-Dawley, rat, plasma, po, 100 mg/kg/day, Mean AUC0–24, rat female; 100 mg/kg/day oral; 4 weeks; last day of dosing
measured parameter: AUC(0-t) (ng·h/mL)
A number alone suffices; assume ng·h/mL.

Problem: Can you share its AUC(0-t)? I mean this compound: Cc1cc(Nc2cc3ncccc3c(N[C@@H]3C[C@H]4CC[C@@H](C3)N4CCC#N)n2)n[nH]1
Solution: 70.5

====

assay: Rat repeat-dose toxicity studies: plasma toxicokinetics; assay type: in vivo; conditions: female, Sprague-Dawley (Crl:CD), rat, plasma, po, 1000 mg/kg/day, Mean AUC0–24, rat female; 1000 mg/kg/day oral; 26 weeks; last day of dosing
measured parameter: AUC(0-t) (ng·h/mL)
A number alone suffices; assume ng·h/mL.

Problem: Can you share its AUC(0-t)? I mean this molecule: Cc1cc(Nc2cc3ncccc3c(N[C@@H]3C[C@H]4CC[C@@H](C3)N4CCC#N)n2)n[nH]1 [izencitinib, Izencitinib]
Solution: 453

====

assay: Rat repeat-dose toxicity studies: plasma toxicokinetics; assay type: in vivo; settings: female, Sprague-Dawley, rat, plasma, po, 100 mg/kg/day, Mean AUC0–24, rat female; 100 mg/kg/day oral; 13 weeks; last day of dosing
measured parameter: AUC(0-t) (ng·h/mL)
A number alone suffices; assume ng·h/mL.

Problem: Can you share its AUC(0-t)? I mean this compound: Cc1cc(Nc2cc3ncccc3c(N[C@@H]3C[C@H]4CC[C@@H](C3)N4CCC#N)n2)n[nH]1 [izencitinib, Izencitinib]
Solution: 227

====

experiment: Rat EFD study: maternal and fetal plasma toxicokinetics; type: in vivo; details: rat, fetal plasma, oral, 1000 mg/kg/day
measured parameter: concentration at 3 h (ng/mL)
A number alone suffices; assume ng/mL.

Problem: Can you share its concentration at 3 h? I mean this molecule: Cc1cc(Nc2cc3ncccc3c(N[C@@H]3C[C@H]4CC[C@@H](C3)N4CCC#N)n2)n[nH]1 [izencitinib, Izencitinib]
Solution: 1.18

====

test: Dog 4-, 13-, 39-week repeat-dose general toxicity studies; type: in vivo; details: both, beagle, dog, in vivo, oral
measured parameter: NOAEL at 39 weeks (mg/kg/day)
A number alone suffices; assume mg/kg/day.

Problem: Can you share its NOAEL at 39 weeks? I mean this molecule: Cc1cc(Nc2cc3ncccc3c(N[C@@H]3C[C@H]4CC[C@@H](C3)N4CCC#N)n2)n[nH]1
Solution: 30

====

experiment: Rat repeat-dose toxicity studies: plasma toxicokinetics; format: in vivo; conditions: male, Sprague-Dawley, rat, plasma, po, 30 mg/kg/day, Mean AUC0–24, rat male; 30 mg/kg/day oral; 13 weeks; last day of dosing
measured parameter: AUC(0-t) (ng·h/mL)
A number alone suffices; assume ng·h/mL.

Problem: Can you share its AUC(0-t)? I mean this compound: Cc1cc(Nc2cc3ncccc3c(N[C@@H]3C[C@H]4CC[C@@H](C3)N4CCC#N)n2)n[nH]1
Solution: 58.2

====

assay: Rat repeat-dose toxicity studies: plasma toxicokinetics; format: in vivo; details: male, Sprague-Dawley, rat, plasma, po, 1000 mg/kg/day, Mean AUC0–24, rat male; 1000 mg/kg/day oral; 13 weeks; last day of dosing
measured parameter: AUC(0-t) (ng·h/mL)
A number alone suffices; assume ng·h/mL.

Problem: Can you share its AUC(0-t)? I mean this compound: Cc1cc(Nc2cc3ncccc3c(N[C@@H]3C[C@H]4CC[C@@H](C3)N4CCC#N)n2)n[nH]1
Solution: 452

====

assay: Rat repeat-dose toxicity studies: plasma toxicokinetics; assay type: in vivo; settings: female, Sprague-Dawley (Crl:CD), rat, plasma, po, 100 mg/kg/day, Mean AUC0–24, rat female; 100 mg/kg/day oral; 26 weeks; last day of dosing
measured parameter: AUC(0-t) (ng·h/mL)
A number alone suffices; assume ng·h/mL.

Problem: Can you share its AUC(0-t)? I mean this compound: Cc1cc(Nc2cc3ncccc3c(N[C@@H]3C[C@H]4CC[C@@H](C3)N4CCC#N)n2)n[nH]1
Solution: 127

====

experiment: Rat repeat-dose toxicity studies: plasma toxicokinetics; format: in vivo; conditions: male, Sprague-Dawley, rat, plasma, po, 100 mg/kg/day, Mean AUC0–24, rat male; 100 mg/kg/day oral; 4 weeks; last day of dosing
measured parameter: AUC(0-t) (ng·h/mL)
A number alone suffices; assume ng·h/mL.

Problem: Can you share its AUC(0-t)? I mean this compound: Cc1cc(Nc2cc3ncccc3c(N[C@@H]3C[C@H]4CC[C@@H](C3)N4CCC#N)n2)n[nH]1
Solution: 71.3

====

assay: Rat repeat-dose toxicity studies: plasma toxicokinetics; assay type: in vivo; conditions: female, Sprague-Dawley (Crl:CD), rat, plasma, po, 100 mg/kg/day, Mean Cmax, rat female; 100 mg/kg/day oral; 26 weeks; last day of dosing
measured parameter: Cmax (ng/mL)
A number alone suffices; assume ng/mL.

Problem: Can you share its Cmax? I mean this compound: Cc1cc(Nc2cc3ncccc3c(N[C@@H]3C[C@H]4CC[C@@H](C3)N4CCC#N)n2)n[nH]1
Solution: 32.5

====

test: Rat repeat-dose toxicity studies: plasma toxicokinetics; format: in vivo; conditions: male, Sprague-Dawley (Crl:CD), rat, plasma, po, 1000 mg/kg/day, Mean AUC0–24, rat male; 1000 mg/kg/day oral; 26 weeks; last day of dosing
measured parameter: AUC(0-t) (ng·h/mL)
A number alone suffices; assume ng·h/mL.

Problem: Can you share its AUC(0-t)? I mean this compound: Cc1cc(Nc2cc3ncccc3c(N[C@@H]3C[C@H]4CC[C@@H](C3)N4CCC#N)n2)n[nH]1 [izencitinib, Izencitinib]
Solution: 384

====

test: Human plasma protein binding; type: in vitro ADME
measured parameter: fraction unbound

Problem: Can you share its fraction unbound? I mean this molecule: Cc1cc(Nc2cc3ncccc3c(N[C@@H]3C[C@H]4CC[C@@H](C3)N4CCC#N)n2)n[nH]1
Solution: 0.146

====

assay: Rat repeat-dose toxicity studies: plasma toxicokinetics; type: in vivo; conditions: male, Sprague-Dawley (Crl:CD), rat, plasma, po, 30 mg/kg/day, Mean Cmax, rat male; 30 mg/kg/day oral; 26 weeks; last day of dosing
measured parameter: Cmax
Please answer using the number first and the unit second.

Problem: Can you share its Cmax? I mean this molecule: Cc1cc(Nc2cc3ncccc3c(N[C@@H]3C[C@H]4CC[C@@H](C3)N4CCC#N)n2)n[nH]1
Solution: 4.52 ng/mL

====

test: Rat repeat-dose toxicity studies: plasma toxicokinetics; type: in vivo; conditions: female, Sprague-Dawley, rat, plasma, po, 30 mg/kg/day, Mean AUC0–24, rat female; 30 mg/kg/day oral; 13 weeks; last day of dosing
measured parameter: AUC(0-t) (ng·h/mL)
A number alone suffices; assume ng·h/mL.

Problem: Can you share its AUC(0-t)? I mean this molecule: Cc1cc(Nc2cc3ncccc3c(N[C@@H]3C[C@H]4CC[C@@H](C3)N4CCC#N)n2)n[nH]1
Solution: 54.6

====

experiment: Rat repeat-dose toxicity studies: plasma toxicokinetics; format: in vivo; settings: male, Sprague-Dawley (Crl:CD), rat, plasma, po, 30 mg/kg/day, Mean AUC0–24, rat male; 30 mg/kg/day oral; 26 weeks; last day of dosing
measured parameter: AUC(0-t) (ng·h/mL)
A number alone suffices; assume ng·h/mL.

Problem: Can you share its AUC(0-t)? I mean this compound: Cc1cc(Nc2cc3ncccc3c(N[C@@H]3C[C@H]4CC[C@@H](C3)N4CCC#N)n2)n[nH]1
Solution: 34.6

The values you see were collected from paper PMC8963331.
